Recorded values, source paper PMC7819943.

# MEASURED TARGET: OsSMF1 (Oryza sativa, UniProt Q6ZLB0 1-436)
# Sequence: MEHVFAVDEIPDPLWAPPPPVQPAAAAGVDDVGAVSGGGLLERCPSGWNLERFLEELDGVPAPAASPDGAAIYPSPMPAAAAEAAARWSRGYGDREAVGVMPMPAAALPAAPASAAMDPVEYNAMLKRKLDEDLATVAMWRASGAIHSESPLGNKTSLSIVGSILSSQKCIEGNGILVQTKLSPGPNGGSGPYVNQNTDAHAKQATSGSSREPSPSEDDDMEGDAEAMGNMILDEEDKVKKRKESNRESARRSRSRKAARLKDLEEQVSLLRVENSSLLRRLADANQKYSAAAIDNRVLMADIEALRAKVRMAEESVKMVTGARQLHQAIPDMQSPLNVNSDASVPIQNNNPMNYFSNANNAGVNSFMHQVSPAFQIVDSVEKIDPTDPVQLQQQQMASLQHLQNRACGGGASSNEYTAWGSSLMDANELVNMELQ
# ASSAY TEXT: protein-binding microarray (RPBM); PBS, 2% BSA, 51.3 ng/ul salmon testes DNA, 50 uM zinc acetate, 200 nM TF, 25 C, 1 h; high values mean tight binding
# RUN PARAMETERS: protein: recombinant; tags: N-terminal polyhistidine and DsRed monomer fusion (pET32a); chain copies: 2; label: CyDye5-dUTP incorporated in the synthesized complementary strand; 3' TTTTT single-stranded linker to array surface; dsDNA, one strand shown
The full ranking holds about 39,000 sequences; the median of “fluorescence intensity (a.u.)” is about 4,300, and the highest 2% start at about 39,000. The sample holds the highest values, similar sequences and a random draw of the others, so the mix is not that of the screen.
// binding signal lookup, one value per entry

Look over these answered cases.
// recorded binding signal for CGTGAGCGGGTGGTGGTGGTGATGGCGTTCGCGGTGGCGACGGAGTCACCTAGTGCAG : 3520 fluorescence intensity (a.u.)

binding signal reported for this sequence CCACCATGGCATGCCACGTCAACACACAGAGTGGGTTGGACGGAGTCACCTAGTGCAG : 17900 fluorescence intensity (a.u.)

// sample GTCTTTCCGAGTGGTGGCGGCGGTGGCTGATCTGCTTGTGCGGAGTCACCTAGTGCAG , its binding signal was 3420 fluorescence intensity (a.u.)

Looking up TTATATATCCCTGATAGCTGATTAGTTGGCACATCAGCATCGGAGTCACCTAGTGCAG , I see its binding signal listed as 3210 fluorescence intensity (a.u.)

Entry TCGGCGGCGAACTTCCCCGCCGACGTGCCAGATCTCAAACCGGAGTCACCTAGTGCAG — recorded binding signal = 4610 fluorescence intensity (a.u.)

Note to self: binding signal recorded for AAACACACTGACACGCATTCGGCCCGTTCCCTCGATGCGTCGGAGTCACCTAGTGCAG was 5340 fluorescence intensity (a.u.)

According to the records, this sequence GCGCCGCTCCGTGTCCCTCCCAATCCGAACCGTTTCGCGCCGGAGTCACCTAGTGCAG displays binding signal of 3500 fluorescence intensity (a.u.)

Item: CTTAATTAATTATACACACAAACATTCCCTCCAATGCATGCGGAGTCACCTAGTGCAG | binding signal: 3760 fluorescence intensity (a.u.)

***
Briefly, binding signal measured for GCATGGTGGCGGCGGGAAGGAGGAGTGGGGCGGCGGGTGCCGGAGTCACCTAGTGCAG : 3770 fluorescence intensity (a.u.)
